Biological target: GST-hPPARγ LBD (Homo sapiens)
Construct: GST-hPPARγ LBD (amino acids 175-476); made in house; host or cells: E. coli BL21(DE3)
Sequence (P37231 203-504): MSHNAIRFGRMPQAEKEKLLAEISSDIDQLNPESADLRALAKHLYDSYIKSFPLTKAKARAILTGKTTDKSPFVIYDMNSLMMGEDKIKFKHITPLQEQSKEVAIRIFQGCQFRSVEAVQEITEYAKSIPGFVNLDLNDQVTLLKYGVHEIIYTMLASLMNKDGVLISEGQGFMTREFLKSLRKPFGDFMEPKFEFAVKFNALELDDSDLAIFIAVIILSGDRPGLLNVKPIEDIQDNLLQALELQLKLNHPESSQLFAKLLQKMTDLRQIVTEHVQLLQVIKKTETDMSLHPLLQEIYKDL
Sequence (Q15788 676-700 partner limits assumed): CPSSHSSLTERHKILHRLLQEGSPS
Assay: PPARγ receptor binding assay (CARLA, TR-FRET functional binding)
Format: biochemical
Conditions: TR-FRET coactivator (SRC-1 peptide) recruitment, 3 hours at room temperature
reported_property: EC50

Any idea what EC50 was measured for CCOC(=O)c1cn(CC)nc1NS(=O)(=O)c1ccc(OCc2nc(-c3ccc(C(F)(F)F)cc3)oc2C)cc1 ?
~3 nM

Where do the numbers come from? From patent US7538135B2.
